Reported IC50 values are given for each entry in this list.
Test system: T-lymphocytes (BALB/cBYJ responder spleen cells with mitomycin C treated C57BL/6J stimulator spleen cells)
test: Mixed lymphocyte response (MLR)
Assay type: cell-based, mouse
conditions: Mus musculus, T-lymphocyte, 120 h; estimated IC50; 5 days at 37° C., MTT; 1, 10, 30, 100, and 300 μM
All answers are understood in µM, so give the number only.

Worked cases, answers included:
• CCCCCCCCCOCCCO[C@H]1O[C@H]([C@H](C)N2CCCC2)[C@@H]2OC(C)(C)O[C@H]12 [Compound 15] = 0.99
• CC1(C)O[C@@H]2[C@H](O1)[C@@H](OCCCCN1CCCC1)O[C@@H]2[C@H](O)CO [Compound 29] = 26
• CC1(C)O[C@@H]2[C@H](O1)[C@@H](OCCCc1ccccc1)O[C@@H]2[C@H](O)CNCCCN1CCCC1 [Compound 22] = 0.85

Query: // query IC50 value for entry C[C@@H](OCCN1CCCC1)[C@H]1O[C@H](OCCCc2ccccc2)[C@H]2OC(C)(C)O[C@H]21 [Compound 27]
Result: 5.8

Query: // query IC50 value for entry CCCCCCCCCOCCCO[C@H]1O[C@H]([C@H](O)CN2CCCCC2)[C@@H]2OC(C)(C)O[C@H]12 [Compound 4]
Result: 27

Query: // query IC50 value for entry CCCCCCCCCOCCCO[C@H]1O[C@H]([C@H](O)CN2CCOCC2)[C@@H]2OC(C)(C)O[C@H]12 [Compound 5]
Result: 19

###

Tested on: BUD-8 human skin fibroblast cells
test: BUD-8 human cell line fibroblast proliferation assay
Assay type: cell-based
conditions: Homo sapiens, Skin fibroblast, 72 h; estimated IC50; BUD-8 cells, 3 days, MTT
measure.name: IC50 (µM)
All answers are understood in µM, so give the number only.

- CC1(C)O[C@@H]2[C@H](O1)[C@@H](OCCCc1ccccc1)O[C@@H]2[C@H](O)CNCCCN1CCCC1: 16
- CCCCCCCCCOCCCO[C@H]1O[C@H]([C@H](O)CN2CCCC2)[C@@H]2OC(C)(C)O[C@H]12: 18
- CCCCCCCCCOCCCO[C@H]1O[C@H]([C@H](O)CN2CCCCCC2)[C@@H]2OC(C)(C)O[C@H]12: 38
- CCCCCCCCCOCCCO[C@H]1O[C@H]([C@@H](C)OCCN2CCCC2)[C@@H]2OC(C)(C)O[C@H]12: 42
- CCCCCCCCCOCCCO[C@H]1O[C@H]([C@H](C)N2CCCC2)[C@@H]2OC(C)(C)O[C@H]12: 170

Query: // query IC50 value for entry CC1(C)O[C@@H]2[C@H](O1)[C@@H](OCCCCN1CCCC1)O[C@@H]2[C@H](O)CO
Result: 190

Query: // query IC50 value for entry C[C@@H](OCCN1CCCC1)[C@H]1O[C@H](OCCCc2ccccc2)[C@H]2OC(C)(C)O[C@H]21
Result: 148

Query: // query IC50 value for entry CCCCCCCNC[C@@H](O)[C@H]1O[C@H](OCCCc2ccccc2)[C@H]2OC(C)(C)O[C@H]21
Result: 19

Query: // query IC50 value for entry CCCCCCCCCOCCCO[C@H]1O[C@H]([C@H](O)CNCCCCCCC)[C@@H]2OC(C)(C)O[C@H]12
Result: 16

Source of measurements: patent US5360794A
